- TEST_SYSTEM: Dual specificity protein phosphatase 6 (Rattus norvegicus)
- ASSAY_PROTOCOL: MKP-3 phosphatase inhibitors, primary screen, biochemical, rat enzyme, in vitro (AID 425);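 further: plate controls were vehicle for no effect and reference inhibitor for full effect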
- CONDITION_SUMMARY: recombinant MKP-3 phosphatase activity, fluorescence; at 20 µM
About 190 (0.17%) of roughly 110,000 compounds were called active. No stated cut-off is given here; in the data, active means inhibition above about 50%; inactive means the rest. This is one part of a sample in which actives are shown more often than they occur. Results with a measured potency or affinity are listed apart.
Outcome codes: t for active, f for inactive

- COMPOUND: "Cc1ccccc1OCC(=O)Nc1cccc(NC(=O)c2ccccc2Cl)c1"
  TEST_SYSTEM: "Dual specificity protein phosphatase 6 (Rattus norvegicus)"
  GROUP_LABEL: "f"
- COMPOUND: "Cc1nc2ncccn2c1-c1csc(Nc2cccc(O)c2)n1"
  TEST_SYSTEM: "Dual specificity protein phosphatase 6 (Rattus norvegicus)"
  GROUP_LABEL: "f"
- COMPOUND: "Cc1ccc(S(=O)(=O)Nc2cc(Sc3ncn[nH]3)c(O)c3ccccc23)cc1"
  TEST_SYSTEM: "Dual specificity protein phosphatase 6 (Rattus norvegicus)"
  GROUP_LABEL: "t"
- COMPOUND: "Oc1ccc(N=Cc2cc(Br)cc(Br)c2O)cc1"
  TEST_SYSTEM: "Dual specificity protein phosphatase 6 (Rattus norvegicus)"
  GROUP_LABEL: "f"
- COMPOUND: "Oc1ccc(/C=N/N=C/c2ccc(O)c(O)c2)cc1O"
  TEST_SYSTEM: "Dual specificity protein phosphatase 6 (Rattus norvegicus)"
  GROUP_LABEL: "f"
- COMPOUND: "COc1cccc(/C=N/n2c(SC)nnc2-c2ccccc2)c1O"
  TEST_SYSTEM: "Dual specificity protein phosphatase 6 (Rattus norvegicus)"
  GROUP_LABEL: "f"
- COMPOUND: "O=[N+]([O-])c1cccc(C2Nc3ccc4ccccc4c3C3C=CCC32)c1 (stereo not drawn)"
  TEST_SYSTEM: "Dual specificity protein phosphatase 6 (Rattus norvegicus)"
  GROUP_LABEL: "f"
- COMPOUND: "O=C(N/N=C\\c1cn(Cc2ccc(Cl)c(Cl)c2)c2ccccc12)c1ccc([N+](=O)[O-])cc1"
  TEST_SYSTEM: "Dual specificity protein phosphatase 6 (Rattus norvegicus)"
  GROUP_LABEL: "f"
- COMPOUND: "COc1ccc2c(c1)C1C=CCC1C(C(=O)O)N2 (stereo not drawn)"
  TEST_SYSTEM: "Dual specificity protein phosphatase 6 (Rattus norvegicus)"
  GROUP_LABEL: "f"
- COMPOUND: "NC(=O)c1ccccc1NC(=O)c1ccc(Cl)cc1[N+](=O)[O-]"
  TEST_SYSTEM: "Dual specificity protein phosphatase 6 (Rattus norvegicus)"
  GROUP_LABEL: "f"
- COMPOUND: "Cc1ccc2c(c1)C1C=CCC1C(c1ccccc1[N+](=O)[O-])N2 (stereo not drawn)"
  TEST_SYSTEM: "Dual specificity protein phosphatase 6 (Rattus norvegicus)"
  GROUP_LABEL: "f"
- COMPOUND: "COc1cccc(C(=O)NNC(N)=O)c1"
  TEST_SYSTEM: "Dual specificity protein phosphatase 6 (Rattus norvegicus)"
  GROUP_LABEL: "f"
- COMPOUND: "O=C(O)/C=C/C(=O)Nc1ccc(NC(=O)c2ccccc2)c(Cl)c1"
  TEST_SYSTEM: "Dual specificity protein phosphatase 6 (Rattus norvegicus)"
  GROUP_LABEL: "f"
- COMPOUND: "Oc1ccc(C2Nc3ccc4ccccc4c3C3C=CCC32)cc1 (stereo not drawn)"
  TEST_SYSTEM: "Dual specificity protein phosphatase 6 (Rattus norvegicus)"
  GROUP_LABEL: "f"
- COMPOUND: "Cc1ccc(-c2nnn(CC(=O)N(Cc3ccccc3)C(C(=O)NC3CCCC3)c3ccncc3)n2)o1 (stereo not drawn)"
  TEST_SYSTEM: "Dual specificity protein phosphatase 6 (Rattus norvegicus)"
  GROUP_LABEL: "f"
- COMPOUND: "CCOc1ccc2nc(Nc3nc(C)c(C)c(=O)[nH]3)nc(C)c2c1"
  TEST_SYSTEM: "Dual specificity protein phosphatase 6 (Rattus norvegicus)"
  GROUP_LABEL: "f"
- COMPOUND: "CC(=O)Nc1ccc2c(c1)C1C=CCC1C(C(=O)O)N2 (stereo not drawn)"
  TEST_SYSTEM: "Dual specificity protein phosphatase 6 (Rattus norvegicus)"
  GROUP_LABEL: "f"
- COMPOUND: "O=C(O)c1cccc(N2C(=O)c3ccc(Br)cc3C2=O)c1"
  TEST_SYSTEM: "Dual specificity protein phosphatase 6 (Rattus norvegicus)"
  GROUP_LABEL: "f"
- COMPOUND: "O=C(O)CCCCCN1C(=O)C(=O)/C(=C(/O)c2ccccc2)C1c1ccc(F)cc1 (stereo not drawn)"
  TEST_SYSTEM: "Dual specificity protein phosphatase 6 (Rattus norvegicus)"
  GROUP_LABEL: "f"
- COMPOUND: "O=C(O)C1Nc2c(C(=O)N3CCCC3)cccc2C2C=CCC12 (stereo not drawn)"
  TEST_SYSTEM: "Dual specificity protein phosphatase 6 (Rattus norvegicus)"
  GROUP_LABEL: "f"
- COMPOUND: "CCN1C(=O)N(COC(C)=O)C2C1N(COC(C)=O)C(=O)N2CC (stereo not drawn)"
  TEST_SYSTEM: "Dual specificity protein phosphatase 6 (Rattus norvegicus)"
  GROUP_LABEL: "f"
- COMPOUND: "Oc1cccc(C=Nc2ccc(Cl)c(Cl)c2)c1"
  TEST_SYSTEM: "Dual specificity protein phosphatase 6 (Rattus norvegicus)"
  GROUP_LABEL: "f"
- COMPOUND: "O=C(CCCCC(=O)NCc1cccs1)NCc1cccs1"
  TEST_SYSTEM: "Dual specificity protein phosphatase 6 (Rattus norvegicus)"
  GROUP_LABEL: "f"

====

Known inhibition of a selection of compounds
- TEST_SYSTEM: Dual specificity protein phosphatase 6 (Rattus norvegicus) (UniProt Q64346)
- Sequence (Q64346 whole entry, looked up): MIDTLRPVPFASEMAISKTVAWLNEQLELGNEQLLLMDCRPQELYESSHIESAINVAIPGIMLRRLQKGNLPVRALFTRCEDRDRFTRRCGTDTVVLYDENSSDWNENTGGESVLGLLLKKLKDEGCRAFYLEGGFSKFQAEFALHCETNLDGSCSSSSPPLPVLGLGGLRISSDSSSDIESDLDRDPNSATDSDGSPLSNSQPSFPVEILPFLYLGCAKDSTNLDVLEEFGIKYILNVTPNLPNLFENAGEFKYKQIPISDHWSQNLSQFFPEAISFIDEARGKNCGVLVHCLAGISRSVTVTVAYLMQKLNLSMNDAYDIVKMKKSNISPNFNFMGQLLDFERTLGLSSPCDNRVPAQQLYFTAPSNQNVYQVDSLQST
- ASSAY_PROTOCOL: MKP-3 phosphatase inhibitors, primary screen, biochemical, rat enzyme, in vitro (AID 425);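 further: plate controls were vehicle for no effect and reference inhibitor for full effect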
- CONDITION_SUMMARY: recombinant MKP-3 phosphatase activity, fluorescence; at 20 µM; stronger effect = higher value
Among all 110,000 compounds or so, about 190 (0.17%) were called active. The full list was thinned out, with actives kept by preference. Potency and affinity values are given separately.
READOUT_TYPE: inhibition

- COMPOUND: "CCCC1=NN2C(=N)/C(=C/c3cc(OC)ccc3OC)C(=O)N=C2S1"
  TEST_SYSTEM: "Dual specificity protein phosphatase 6 (Rattus norvegicus) (UniProt Q64346)"
  READOUT_TYPE: "inhibition"
  READOUT_VALUE: "1.4% (inactive)"
- COMPOUND: "CCOc1ccc(N2C(=O)/C(=C/c3ccc(N(CC)CC)o3)C(=O)NC2=S)cc1"
  TEST_SYSTEM: "Dual specificity protein phosphatase 6 (Rattus norvegicus) (UniProt Q64346)"
  READOUT_TYPE: "inhibition"
  READOUT_VALUE: "-0.2% (inactive)"
- COMPOUND: "O=C1N=c2ccccc2=C1c1s/c(=N/N=C2/C(=O)Nc3ccccc32)n(-c2ccc(O)cc2)c1O"
  TEST_SYSTEM: "Dual specificity protein phosphatase 6 (Rattus norvegicus) (UniProt Q64346)"
  READOUT_TYPE: "inhibition"
  READOUT_VALUE: "69.8% (active)"
- COMPOUND: "COc1ccc(N(CC(=O)NCC2CCCO2)S(=O)(=O)c2c(C)noc2C)cc1 (stereo unspecified)"
  TEST_SYSTEM: "Dual specificity protein phosphatase 6 (Rattus norvegicus) (UniProt Q64346)"
  READOUT_TYPE: "inhibition"
  READOUT_VALUE: "-8.1% (inactive)"
- COMPOUND: "CCC1=NN2C(=N)/C(=C/c3ccc(OCCOc4cccc(OC)c4)cc3)C(=O)N=C2S1"
  TEST_SYSTEM: "Dual specificity protein phosphatase 6 (Rattus norvegicus) (UniProt Q64346)"
  READOUT_TYPE: "inhibition"
  READOUT_VALUE: "-1.7% (inactive)"
- COMPOUND: "CCOc1ccc(N2C(=O)/C(=C/c3ccc(OCc4cccc(C(=O)O)c4)cc3)C(=O)NC2=S)cc1"
  TEST_SYSTEM: "Dual specificity protein phosphatase 6 (Rattus norvegicus) (UniProt Q64346)"
  READOUT_TYPE: "inhibition"
  READOUT_VALUE: "-1.9% (inactive)"
- COMPOUND: "O=c1c2ccccc2nc(-c2ccco2)n1-c1cccc2ccccc12"
  TEST_SYSTEM: "Dual specificity protein phosphatase 6 (Rattus norvegicus) (UniProt Q64346)"
  READOUT_TYPE: "inhibition"
  READOUT_VALUE: "2.8% (inactive)"
- COMPOUND: "Cc1c(C)c2ccc(OCC(=O)c3ccc(-c4ccccc4)cc3)cc2oc1=O"
  TEST_SYSTEM: "Dual specificity protein phosphatase 6 (Rattus norvegicus) (UniProt Q64346)"
  READOUT_TYPE: "inhibition"
  READOUT_VALUE: "1.8% (inactive)"
- COMPOUND: "COc1ccc(C2C(C(=O)OC(C)C)=C(C)N=c3s/c(=C/c4c[nH]c5ccccc45)c(=O)n32)cc1 (stereo unspecified)"
  TEST_SYSTEM: "Dual specificity protein phosphatase 6 (Rattus norvegicus) (UniProt Q64346)"
  READOUT_TYPE: "inhibition"
  READOUT_VALUE: "3.4% (inactive)"
- COMPOUND: "C=CCn1c(NC(=O)c2ccccc2)c(C#N)c2nc3ccccc3nc21"
  TEST_SYSTEM: "Dual specificity protein phosphatase 6 (Rattus norvegicus) (UniProt Q64346)"
  READOUT_TYPE: "inhibition"
  READOUT_VALUE: "23.5% (inactive)"
- COMPOUND: "Cc1ccc(S(=O)(=O)NC(C)(C)CN2CCN(CC(C)(C)NS(=O)(=O)c3ccc(C)cc3)CC2)cc1"
  TEST_SYSTEM: "Dual specificity protein phosphatase 6 (Rattus norvegicus) (UniProt Q64346)"
  READOUT_TYPE: "inhibition"
  READOUT_VALUE: "-0.5% (inactive)"
- COMPOUND: "Cc1ccc(N2C(=O)NC(=O)/C(=C\\c3ccc(I)o3)C2=O)cc1"
  TEST_SYSTEM: "Dual specificity protein phosphatase 6 (Rattus norvegicus) (UniProt Q64346)"
  READOUT_TYPE: "inhibition"
  READOUT_VALUE: "5.4% (inactive)"
- COMPOUND: "COC(=O)c1ccc(Nc2ncnc3c2cnn3-c2cccc(C)c2)cc1"
  TEST_SYSTEM: "Dual specificity protein phosphatase 6 (Rattus norvegicus) (UniProt Q64346)"
  READOUT_TYPE: "inhibition"
  READOUT_VALUE: "-5% (inactive)"
- COMPOUND: "O=C1N=c2ccccc2=C1c1sc(=Nc2ccccc2)n(-c2ccccc2)c1O"
  TEST_SYSTEM: "Dual specificity protein phosphatase 6 (Rattus norvegicus) (UniProt Q64346)"
  READOUT_TYPE: "inhibition"
  READOUT_VALUE: "-2% (inactive)"
- COMPOUND: "O=C1NC(=S)N(c2ccccc2F)C(=O)/C1=C/c1ccc(Sc2ccccc2)o1"
  TEST_SYSTEM: "Dual specificity protein phosphatase 6 (Rattus norvegicus) (UniProt Q64346)"
  READOUT_TYPE: "inhibition"
  READOUT_VALUE: "7.1% (inactive)"
- COMPOUND: "CCOc1ccc(NCC(=O)N/N=C/c2cc([N+](=O)[O-])ccc2O)cc1"
  TEST_SYSTEM: "Dual specificity protein phosphatase 6 (Rattus norvegicus) (UniProt Q64346)"
  READOUT_TYPE: "inhibition"
  READOUT_VALUE: "5.2% (inactive)"
